For each of the compounds below, state its Kd.
Target: human CA-IX (Homo sapiens, UniProt Q16790)
Construct: purchased Acro CA9-H82E3
Assay: Surface Plasmon Resonance (SPR) binding kinetics to recombinant human CA-IX (Biacore 8K, single-cycle kinetics, 1:1 binding model)
Settings: Chelated Metal: Lu-175; SPR, 25° C., pH 7.4; read-out: CAIX KD

These recorded examples may help you get a feel for the data.
smiles record	endpoint label	test result
CC(CCC(=O)N[C@@H](CC(=O)N[C@@H](CC(=O)N1CCN(C(=O)CN2CCN(CC(=O)O)CCN(CC(=O)O)CCN(CC(=O)O)CC2)C[C@H]1C(=O)NCCn1cc(-c2ccc(C(=O)Nc3nnc(S(N)(=O)=O)s3)cc2)nn1)C(=O)O)C(=O)O)(c1ccc(O)cc1)c1ccc(O)cc1.[Lu+3]	Kd	1 to 2.5 nM
CC(CCC(=O)N1CCC[C@@H]1C(=O)N[C@@H](CC(=O)N1CCN(C(=O)CN2CCN(CC(=O)O)CCN(CC(=O)O)CCN(CC(=O)O)CC2)C[C@@H]1C(=O)NCCn1cc(C23CC(C(=O)Nc4nnc(S(N)(=O)=O)s4)(C2)C3)nn1)C(=O)O)(c1ccc(O)cc1)c1ccc(O)cc1.[Lu+3]	Kd	2.5 to 10 nM

Problem: Fill blank: measured Kd of the compound CC(CCC(=O)N[C@@H](CC(=O)N[C@@H](CC(=O)N1CCN(C(=O)CN2CCN(CC(=O)O)CCN(CC(=O)O)CCN(CC(=O)O)CC2)C[C@H]1C(=O)NCCn1cc(C23CC(c4cn5nc(S(N)(=O)=O)sc5n4)(C2)C3)nn1)C(=O)O)C(=O)O)(c1ccc(O)cc1)c1ccc(O)cc1.[Lu+3] is ____.
Solution: < 1 nM
